assay: pharmacokinetics in BALB/c mice; format: in vivo; conditions: mouse, plasma, IV, 1 mg/kg
observation.type: Cmax (ng/mL)
Field format: number, assumed ng/mL, no unit text.

Measured Cmax, CC1(CNS(N)(=O)=O)CCN(c2ncnc3[nH]ccc23)CC1 [18p] : 303

* * *

assay: pharmacokinetics in BALB/c mice; assay type: in vivo; details: mouse, plasma, IV, 1 mg/kg, read-out: Vss
observation.type: Vd (L/kg)
Field format: number, assumed L/kg, no unit text.

Measured Vd, CC1(CNS(N)(=O)=O)CCN(c2ncnc3[nH]ccc23)CC1 [18p] : 2.3

* * *

assay: pharmacokinetics in BALB/c mice; format: in vivo; conditions: mouse, plasma, PO 10 mg/kg vs IV 1 mg/kg
observation.type: bioavailability

Measured bioavailability, CC1(CNS(N)(=O)=O)CCN(c2ncnc3[nH]ccc23)CC1 [18p] : > 100%
